Target: Nurr1 (Homo sapiens)
Assay: Gal4-Nurr1 hybrid reporter gene assay in HEK293T cells
Type: cell-based
Design: expressed in transfected cells; host or cells: HEK293T
Details: maximum effect vs. 0.1% DMSO control; mean±SD; n≥3
reported.property: max. activation

# molecule, max. activation
measured = [
    ("Nc1c(-c2cccc(C(F)(F)F)c2)nc2c(Cl)cccn12 [Compound 23]", "< 1.2-fold act."),
]

[Q] Supply recorded max. activation for Nc1c(-c2ccoc2)nc2c(Cl)cccn12 [Compound 16] here.
[A] < 1.2 fold

[Q] Please indicate max. activation recorded for Cc1nc2c(Cl)cccn2c1NC(=O)c1ccc(-c2ccccc2)s1 [Compound 28]
[A] 2.1±0.1 fold

---

Target: Nurr1 (Homo sapiens)
Assay: Gal4-Nurr1 hybrid reporter gene assay in HEK293T cells
Assay type: cell-based
Design: expressed in transfected cells; host or cells: HEK293T
Settings: Gal4-Nurr1 hybrid reporter gene assay; mean±SD; n≥3
reported.property: pEC50
# pEC50 is unitless: minus log10 of the molar concentration; print number only

Recorded results for 8 molecules are shown here.
# smiles.notation, pEC50
records = [
    ("Cc1nc2c(Cl)cccn2c1NC(=O)c1ccc(-c2ccc(OC(F)(F)F)cc2)o1", 6.10),
    ("Cc1ccc(-c2nc3c(Cl)cccn3c2N)cc1", 4.92),
    ("Cc1nc2c(Cl)cccn2c1N", 5.15),
    ("Cc1cc(N)c2cccc(Cl)c2n1", 4.77),
    ("Cc1ccc(-c2ccc(C(=O)Nc3c(C)nc4c(Cl)cccn34)o2)cc1", 6.89),
    ("Cc1nc2c(Cl)cccn2c1NC(=O)c1ccc(-c2ccc(N(C)C)cc2)o1", 7.05),
    ("Cc1nc2c(Cl)cccn2c1NC(=O)c1ccc(-c2ccccc2)s1", 5.49),
    ("CNc1ccc(-c2ccc(C(=O)Nc3c(C)nc4c(Cl)cccn34)o2)cc1", 6.52),
]

[Q] Determine its reported pEC50: `Cc1nc2c(Cl)cccn2c1NC(=O)c1ccc(-c2ccc(Cl)cc2)o1`
[A] 5.80

[Q] Return pEC50 (reported value) for this molecule: `Nc1c(-c2cccc(Cl)c2)nc2c(Cl)cccn12`
[A] 5.05

[Q] Supply pEC50 value. Item: `Cc1nc2c(Cl)cccn2c1NC(=O)c1ccc(-c2ccccc2)o1`
[A] 5.40

---

Target: UniProt P43354
Assay: Gal4-Nurr1 hybrid reporter gene assay in HEK293T cells
Type: cell-based
Parameters: expressed in transfected cells; host or cells: HEK293T
Details: Gal4-Nurr1 hybrid reporter gene assay; mean±SD; n≥3
reported.property: EC50 (nM)
Please give a number only; it is taken to be in nM.

# smiles.notation, EC50 (nM)
data = [
    ("COc1ccc(-c2ccc(C(=O)Nc3c(C)nc4c(Cl)cccn34)o2)cc1", 160),
    ("Nc1c(-c2ccc(Cl)cc2)nc2c(Cl)cccn12", 15000),
    ("Nc1c(-c2ccc(Cl)c(Cl)c2)nc2c(Cl)cccn12", 400),
]

[Q] Tell us which EC50 value is on record for `Cc1ccc(-c2nc3c(Cl)cccn3c2N)cc1C`
[A] 14000

[Q] Look up and state reported EC50 for `Cc1nc2c(Cl)cccn2c1NC(=O)c1ccc(-c2ccc(C(F)(F)F)cc2)o1`
[A] 1100

---

Molecular target: Nurr1-RXR heterodimer (DR5) (Homo sapiens, UniProt P43354)
Construct: The full length human nuclear receptor Nurr1 (pcDNA3.1-hNurr1-NE; Addgene plasmid #102363); NE (suffix in the plasmid name); host or cells: HEK293T
Sequence (P43354 whole entry): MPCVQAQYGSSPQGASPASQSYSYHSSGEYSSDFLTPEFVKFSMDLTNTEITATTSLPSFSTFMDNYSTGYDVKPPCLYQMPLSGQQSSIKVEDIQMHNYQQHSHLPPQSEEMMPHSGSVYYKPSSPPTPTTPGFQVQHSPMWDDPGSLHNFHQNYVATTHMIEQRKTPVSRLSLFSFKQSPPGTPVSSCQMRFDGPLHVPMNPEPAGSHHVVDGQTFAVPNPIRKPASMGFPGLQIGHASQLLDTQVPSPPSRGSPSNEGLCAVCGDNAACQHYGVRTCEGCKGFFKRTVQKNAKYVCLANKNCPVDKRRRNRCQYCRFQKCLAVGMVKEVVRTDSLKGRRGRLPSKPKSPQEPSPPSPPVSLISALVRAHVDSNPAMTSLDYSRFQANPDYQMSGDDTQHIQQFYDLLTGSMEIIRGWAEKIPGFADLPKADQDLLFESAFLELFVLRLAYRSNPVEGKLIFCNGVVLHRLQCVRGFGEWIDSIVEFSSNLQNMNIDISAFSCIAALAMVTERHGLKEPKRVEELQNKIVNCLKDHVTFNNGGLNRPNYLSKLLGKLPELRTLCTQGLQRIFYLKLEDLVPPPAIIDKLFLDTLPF
Sequence (P19793 whole entry partner): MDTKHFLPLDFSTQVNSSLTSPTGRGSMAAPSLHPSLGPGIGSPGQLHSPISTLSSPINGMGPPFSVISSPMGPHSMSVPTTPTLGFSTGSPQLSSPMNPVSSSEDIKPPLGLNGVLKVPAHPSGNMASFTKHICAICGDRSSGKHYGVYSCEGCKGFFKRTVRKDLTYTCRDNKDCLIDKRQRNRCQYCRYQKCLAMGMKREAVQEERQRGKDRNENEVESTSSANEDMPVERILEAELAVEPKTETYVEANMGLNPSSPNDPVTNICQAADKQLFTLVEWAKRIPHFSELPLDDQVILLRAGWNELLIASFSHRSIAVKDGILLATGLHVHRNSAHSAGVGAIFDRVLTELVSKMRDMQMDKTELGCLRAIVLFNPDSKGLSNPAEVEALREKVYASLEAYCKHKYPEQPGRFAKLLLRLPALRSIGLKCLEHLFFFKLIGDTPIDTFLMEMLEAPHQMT
Assay: Full-length Nurr1 reporter gene assay, response element DR5 with RXRα
Assay type: cell-based
Details: with 0.1 µM bexarotene (BEX)
reported.property: pEC50
API: returns pEC50 as number; meaning -log10 of concentration in mol/L.

[Q] Using known records, supply pEC50 for Cc1nc2c(Cl)cccn2c1NC(=O)c1ccc(-c2ccc(N(C)C)cc2)o1 [Compound 36]
[A] 7.48

---

Molecular target: Nurr1 (Homo sapiens, UniProt P43354)
Sequence (P43354 360-595 limits assumed): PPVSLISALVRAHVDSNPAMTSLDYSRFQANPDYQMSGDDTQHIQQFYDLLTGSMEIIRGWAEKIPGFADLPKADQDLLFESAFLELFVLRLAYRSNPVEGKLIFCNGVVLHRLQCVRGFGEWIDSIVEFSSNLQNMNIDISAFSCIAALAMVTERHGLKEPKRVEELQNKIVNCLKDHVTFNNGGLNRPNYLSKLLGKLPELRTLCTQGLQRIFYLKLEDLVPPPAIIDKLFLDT
Test: Gal4-Nurr1 hybrid reporter gene assay in HEK293T cells
Format: cell-based
Parameters: expressed in transfected cells; host or cells: HEK293T
Conditions: maximum effect vs. 0.1% DMSO control; mean±SD; n≥3
Method: Hybrid reporter gene assays. Nurr1 modulation was determined in a Gal4 hybrid reporter gene assay in HEK293T cells (German Collection of Microorganisms and Cell Culture GmbH, DSMZ) using pFR-Luc (Stratagene, La Jolla, CA, USA; reporter), pRL-SV40 (Promega, Madison, WI, USA; internal control) and pFA-CMV-hNurr1-LBD^14, coding for the hinge region and ligand binding domain of the canonical isoform of human Nurr1. […]
reported.property: max. activation (fold)
Form entry: value (fold) — number only.

# smiles.notation, result.unit, max. activation
data = [
    ("Cc1nc2c(Cl)cccn2c1N", "fold", 2.0),
    ("COc1ccc(-c2ccc(C(=O)Nc3c(C)nc4c(Cl)cccn34)o2)cc1", "fold", 1.7),
    ("Cc1cc(N)c2cccc(Cl)c2n1", "fold", 1.7),
]

Here is another compound to look at.
[Q] Tell me its max. activation on Nurr1 (Homo sapiens, UniProt P43354): `Cc1nc2c(Cl)cccn2c1NC(=O)c1ccc(-c2ccccc2)o1`
[A] 2.1

Source: patent EP4596548A1
